The following compounds are shown together with reported inhibition values.
Assay text: growth inhibition, single agent or in combination, cell-based, chromothripsis tumors, cisplatin or BGB combos (AID 1671449);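 also: cells exposed for 96 hours; 0% = vehicle DMSO and 100% = killing by high DMSO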
Particulars: LFS_MB_P medulloblastoma cells, at 0.5 µM, stronger effect = higher value
Active and inactive are the calls of the source. Rule as the data show it: active = inhibition above about 80%; inactive = the rest.
Measured metric: inhibition

# Compound smiles, Endpoint result
records = [
    ("CC(C)OC(=O)[C@H](C)N[P@](=O)(OC[C@H]1O[C@@H](n2ccc(=O)[nH]c2=O)[C@](C)(F)[C@@H]1O)Oc1ccccc1", "-27.6% (inactive)"),
    ("O=C(/C=C/c1cccc(S(=O)(=O)Nc2ccccc2)c1)NO", "40.5% (inactive)"),
    ("c1cc(Nc2cc(C3CC3)[nH]n2)nc(Nc2ccc3nc[nH]c3c2)n1", "-28.9% (inactive)"),
    ("CN(C)Cc1c(C(=O)NCCOc2ccc(C(=O)NO)cc2)oc2ccccc12", "21.6% (inactive)"),
    ("O=C(O)CO.[NH2-].[NH2-].[Pt+2]", "-35.8% (inactive)"),
    ("O=c1[nH]cnc2ccccc12", "-17.1% (inactive)"),
    ("C[C@]12CCCN1CC1=NNC(=O)c3cc(F)cc4[nH]c2c1c34", "-13.4% (inactive)"),
    ("O=C(COc1cccc2c(=O)[nH]ccc12)c1ccccc1", "-16.5% (inactive)"),
    ("COc1cc(C=O)c([N+](=O)[O-])cc1OC", "-16.6% (inactive)"),
    ("N=C1CCCN1Cc1[nH]c(=O)[nH]c(=O)c1Cl", "-20% (inactive)"),
    ("Nc1ccccc1NC(=O)c1ccc(CNc2nccc(-c3cccnc3)n2)cc1", "2.35% (inactive)"),
]

---

Assay text: viability loss with induced miR-34 in A549 – imaging, A549 dox-inducible miR-34, nuclei and caspase counts, primary screen (AID 1347080)
Particulars: A549 miR-34 inducible, Hoechst nuclei count, 48 h; measured here: total cells with miR-34 induction; stronger effect = lower value
Measured metric: cell count

# Compound, Endpoint result
records = [
    ("CCCCC[C@H](O)/C=C/[C@H]1C2CC(CO2)[C@@H]1C/C=C\\CCCC(=O)O (stereo not given in full)", 5400),
    ("CCCCC[C@H](O)/C=C/[C@H]1OC(O)C[C@H](O)[C@@H]1CCCCCCC(=O)O (stereo not given in full)", 5640),
    ("C=CC(=O)Nc1ccc2ncnc(Nc3cccc(Br)c3)c2c1", 3490),
    ("CC(C)(O)CC(=O)NCCn1ccc2ncnc(Nc3ccc(Oc4cccc(C(F)(F)F)c4)c(Cl)c3)c21", 8120),
    ("CC#CCOC(=O)C1=CCCN(C)C1", 8580),
    ("O=C1c2ccccc2C(Cc2ccncc2)(Cc2ccncc2)c2ccccc21", 7700),
    ("COc1nc(C)cnc1NS(=O)(=O)c1cccnc1-c1ccc(-c2nnco2)cc1", 8060),
    ("Cn1cnc2c(F)c(Nc3ccc(Br)cc3Cl)c(C(=O)NOCCO)cc21", 3770),
    ("CN1CCN(c2cccc(Nc3nc4c(-c5ccc(S(C)(=O)=O)cc5)cccn4n3)c2)CC1", 5770),
    ("O=C(O)c1cc(Oc2ccc([N+](=O)[O-])cc2)cc(Oc2ccc([N+](=O)[O-])cc2)c1", 8410),
    ("Cn1cncc1[C@@](N)(c1ccc(Cl)cc1)c1ccc2c(c1)c(-c1cccc(Cl)c1)cc(=O)n2C", 5030),
    ("Cc1ccc(NC(=O)C2(c3ccc4c(c3)OC(F)(F)O4)CC2)nc1-c1cccc(C(=O)O)c1", 8150),
    ("CCCCCCCCCCCC(=O)NC[C@]1(C)CCC[C@]2(C)c3ccc(C(C)C)cc3CC[C@@H]12", 6180),
    ("COc1ncc(-c2ccc3nccc(-c4ccnnc4)c3c2)cc1NS(=O)(=O)c1ccc(F)cc1F", 1270),
    ("N#Cc1ccccc1OCC(O)CNCCNC(=O)Nc1ccccc1 (stereo not given)", 8970),
    ("COc1cc([C@@H]2OC[C@@H](c3cc(OC)c(OC)c(OC)c3)O2)cc(OC)c1OC", 5040),
    ("CCCOCCCCCCCCCC(=O)O", 6150),
    ("CC(C)N1Cc2cc(S(C)(=O)=O)ccc2N(CCN2CC=C(c3c[nH]c4cc(F)ccc34)CC2)S1(=O)=O", 6990),
    ("CCCNS(=O)(=O)Nc1ncnc(OCCOc2ncc(Br)cn2)c1-c1ccc(Br)cc1", 8090),
    ("CCCCCCCCCCCCCCCC(=O)N[C@H]1CCOC1=O", 5590),
]
